molecular target: ACAT1 C126 (P24752) (Homo sapiens, UniProt P24752); assay: Competitive isoTOP-ABPP, cell lysates; assay type: binding; conditions: 500 μm in-vitro ramos
Sequence (P24752 34-427): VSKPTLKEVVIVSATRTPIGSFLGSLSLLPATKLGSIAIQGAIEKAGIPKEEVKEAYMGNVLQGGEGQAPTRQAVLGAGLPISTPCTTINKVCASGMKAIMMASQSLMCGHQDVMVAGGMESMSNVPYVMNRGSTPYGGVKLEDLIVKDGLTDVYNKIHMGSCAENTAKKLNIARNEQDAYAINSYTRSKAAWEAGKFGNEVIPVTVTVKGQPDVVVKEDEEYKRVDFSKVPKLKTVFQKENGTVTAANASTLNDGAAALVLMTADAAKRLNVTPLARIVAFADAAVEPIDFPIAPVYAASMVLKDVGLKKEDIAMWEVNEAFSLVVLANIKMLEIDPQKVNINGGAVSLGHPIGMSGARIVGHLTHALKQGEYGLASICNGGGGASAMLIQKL
MEASURE: isoTOP-ABPP ratio (reactivity profile), P24752_C126

### Prompt Form: Entry = CCN(CC)c1ccc(S(N)(=O)=O)cc1NC(=O)CCl [compound 30] | System = ACAT1 C126 (P24752) (Homo sapiens, UniProt P24752) | isoTOP-ABPP ratio (reactivity profile), P24752_C126 = ____
### Response 1.1

### Prompt Form: Entry = CC(C)CCOCCNC(=O)CCl [compound 27] | System = ACAT1 C126 (P24752) (Homo sapiens, UniProt P24752) | isoTOP-ABPP ratio (reactivity profile), P24752_C126 = ____
### Response 1.3

### Prompt Form: Entry = CC(Br)C(=O)Nc1cc(C(F)(F)F)cc(C(F)(F)F)c1 (centres unmarked) [compound 24] | System = ACAT1 C126 (P24752) (Homo sapiens, UniProt P24752) | isoTOP-ABPP ratio (reactivity profile), P24752_C126 = ____
### Response 1.1

### Prompt Form: Entry = O=C(/C=C/c1ccccc1)Nc1cc(C(F)(F)F)cc(C(F)(F)F)c1 [compound 26] | System = ACAT1 C126 (P24752) (Homo sapiens, UniProt P24752) | isoTOP-ABPP ratio (reactivity profile), P24752_C126 = ____
### Response 0.9

### Prompt Form: Entry = O=C(CCl)N1CCC(C(O)(c2ccccc2)c2ccccc2)CC1 [compound 20] | System = ACAT1 C126 (P24752) (Homo sapiens, UniProt P24752) | isoTOP-ABPP ratio (reactivity profile), P24752_C126 = ____
### Response 20.0
